methodDescription: Oral bioavailability determined in rats
Type: ADME, organism-based
testSettings: rat, in vivo
metric: bioavailability

# input compound: CC(C)(N)CC(=O)N[C@@H]1CCc2c(ccc3ccccc23)N(Cc2ccc(-c3ccccc3-c3nn[nH]n3)cc2)C1=O ; wanted: its bioavailability
< 5%
